Test system: ATP;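 further: ATP exposure 15 min at 22 °C before imaging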
Experiment: switch fluorescence ratio, 500 uM ATP over buffer (Cy3 cluster intensity, sum of 5 cycles each) (fold (ratio)); higher = stronger signal-on switching upon ATP binding; sequences stand for … in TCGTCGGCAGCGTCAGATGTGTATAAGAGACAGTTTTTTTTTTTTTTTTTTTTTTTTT…TC
Conditions: aptamer strand: ATP DNA aptamer (quencher-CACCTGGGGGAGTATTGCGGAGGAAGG + anchor), 100 nM annealed; ATP concentration: 500 uM
value.type: switch fluorescence ratio
Reply: number alone, nothing else.

Here's what some known entries look like.
ordered.residues	switch fluorescence ratio
TCTTCACTAC	1.25
GGTTTGGTAA	1.01
GCGGGTGAGG	1.02
GTTAGAGGGC	1
TTCGGTTGTG	0.96
AAGGCTTCGG	0.998

Query sequence follows.
Incoming: // query switch fluorescence ratio value for entry ATCTGAGTAG
Outgoing: 0.999

----------
System: ATP;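 further: ATP exposure 15 min at 22 °C before imaging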
Assay: switch fluorescence ratio, 500 uM ATP over buffer (Cy3 cluster intensity, sum of 5 cycles each) (fold (ratio)); higher = stronger signal-on switching upon ATP binding; sequences stand for … in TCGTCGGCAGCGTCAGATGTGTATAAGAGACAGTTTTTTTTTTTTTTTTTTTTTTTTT…TC
Conditions: aptamer strand: ATP DNA aptamer (quencher-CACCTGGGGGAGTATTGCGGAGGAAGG + anchor), 100 nM annealed; ATP concentration: 500 uM
Reported switch fluorescence ratio values are given for each entry in this list.
Output: the number by itself.

Below are worked cases with known answers.
ordered.residues	switch fluorescence ratio
CCTGCAGAGC	1.28
AAATCGAGGA	1.02

Now consider the entry below.
Incoming: What is its switch fluorescence ratio for ATP? Entry: GGCATTTCTA
Outgoing: 1.04

----------
Tested on: ATP;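 further: ATP exposure 15 min at 22 °C before imaging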
Experiment: switch fluorescence ratio, 500 uM ATP over buffer (Cy3 cluster intensity, sum of 5 cycles each) (fold (ratio)); higher = stronger signal-on switching upon ATP binding; sequences stand for … in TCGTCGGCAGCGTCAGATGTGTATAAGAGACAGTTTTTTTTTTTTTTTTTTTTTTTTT…TC
Details: aptamer strand: ATP DNA aptamer (quencher-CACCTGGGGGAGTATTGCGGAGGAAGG + anchor), 100 nM annealed; ATP concentration: 500 uM
Recorded switch fluorescence ratio for the following sequences
Answer as a number with no unit attached.

Previously resolved entries follow.
ordered.residues	assayed.target	switch fluorescence ratio
TGCAAAAGGT	ATP	1.02
AAATTGAGGG	ATP	1.02
ACTTACTATC	ATP	1.19
AATGCTCTTC	ATP	0.973

Incoming: Value lookup for switch fluorescence ratio; key = TTACGGGTGG
Outgoing: 1.01

Incoming: Cool, now CTCGGTATGC
Outgoing: 1.26

Incoming: Param item: ATAAGATATG
Outgoing: 0.999

Incoming: Same question for GAGGTGATAG please.
Outgoing: 1.04

Incoming: Same read-out for GTATAAGCCT ?
Outgoing: 1.05

Incoming: Same read-out for TGGGGGAAAA ?
Outgoing: 0.986

----------
System: ATP;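 further: ATP exposure 15 min at 22 °C before imaging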
Assay: switch fluorescence ratio, 500 uM ATP over buffer (Cy3 cluster intensity, sum of 5 cycles each) (fold (ratio)); higher = stronger signal-on switching upon ATP binding; sequences stand for … in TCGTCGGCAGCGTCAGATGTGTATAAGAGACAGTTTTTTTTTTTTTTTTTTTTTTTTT…TC
Details: aptamer strand: ATP DNA aptamer (quencher-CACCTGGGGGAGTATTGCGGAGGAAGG + anchor), 100 nM annealed; ATP concentration: 500 uM
value.type: switch fluorescence ratio
Keep the answer to the number alone.

ordered.residues	assayed.target	value.type	observed
CAAGAGGGAG	ATP	switch fluorescence ratio	0.994
ATGGTGGCAG	ATP	switch fluorescence ratio	0.997
TGGGGGAGTA	ATP	switch fluorescence ratio	0.952

Incoming: I'd like to know its switch fluorescence ratio. The sequence in question is AAATGCCAGG
Outgoing: 1.08

Incoming: Note, next up: CTCGTTGCGG
Outgoing: 1.06

Incoming: Queued: TATAGGAGGG
Outgoing: 0.991

Incoming: Query CAGGTAAAGG next
Outgoing: 1.01

Incoming: Try this sequence too: GGGGGGAGAG
Outgoing: 0.989

Incoming: Could you do the same for TTGTTATAGG , please?
Outgoing: 1.06

Incoming: Further, for TTGACGTGTT ?
Outgoing: 1.03

Incoming: Next up: AAAGTGAGGT
Outgoing: 1.01

----------
Here, each record is paired with measured switch fluorescence ratio data.
Test system: ATP;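 further: ATP exposure 15 min at 22 °C before imaging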
Assay: switch fluorescence ratio, 500 uM ATP over buffer (Cy3 cluster intensity, sum of 5 cycles each) (fold (ratio)); higher = stronger signal-on switching upon ATP binding; sequences stand for … in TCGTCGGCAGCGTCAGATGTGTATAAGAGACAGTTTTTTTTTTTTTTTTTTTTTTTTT…TC
Settings: aptamer strand: ATP DNA aptamer (quencher-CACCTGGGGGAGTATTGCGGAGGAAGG + anchor), 100 nM annealed; ATP concentration: 500 uM
Could you keep your reply to the number by itself?

Some solved cases for reference:
ordered.residues	switch fluorescence ratio
TAAAGGAAAT	1.09
AGTAAAGGAA	0.999
CGTTTCATCT	0.987

Incoming: Any idea what its switch fluorescence ratio is? The sequence is TCGTTTTTAT
Outgoing: 0.983

Incoming: Another sequence: AGGGCGTAAG
Outgoing: 0.972

Incoming: Another sequence: TGATGCTTCA
Outgoing: 1

Incoming: Param item: GGGTAAGTTG
Outgoing: 0.962

----------
Tested on: ATP;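 further: ATP exposure 15 min at 22 °C before imaging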
Assay: switch fluorescence ratio, 500 uM ATP over buffer (Cy3 cluster intensity, sum of 5 cycles each) (fold (ratio)); higher = stronger signal-on switching upon ATP binding; sequences stand for … in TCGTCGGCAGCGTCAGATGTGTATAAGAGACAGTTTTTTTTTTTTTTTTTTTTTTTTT…TC
Conditions: aptamer strand: ATP DNA aptamer (quencher-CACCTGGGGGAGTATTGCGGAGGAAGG + anchor), 100 nM annealed; ATP concentration: 500 uM
value.type: switch fluorescence ratio

Incoming: Sample GAGTTTAAAT — what was its switch fluorescence ratio?
Outgoing: 1.02

Incoming: Also AAGCGGAAGG , if possible.
Outgoing: 1.05

Incoming: Can you handle GTTTGTTGGC next?
Outgoing: 0.967

Incoming: Would you mind doing TGCGACGAGG as well?
Outgoing: 1.04

Incoming: Try TTGTGATGTC next.
Outgoing: 1.03

Incoming: Please give the result for AAGATGATGT too.
Outgoing: 0.986

Incoming: Next sequence: TACATAAAAC
Outgoing: 1.01

----------
Known switch fluorescence ratio of a selection of sequences
Test system: ATP;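 further: ATP exposure 15 min at 22 °C before imaging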
Experiment: switch fluorescence ratio, 500 uM ATP over buffer (Cy3 cluster intensity, sum of 5 cycles each) (fold (ratio)); higher = stronger signal-on switching upon ATP binding; sequences stand for … in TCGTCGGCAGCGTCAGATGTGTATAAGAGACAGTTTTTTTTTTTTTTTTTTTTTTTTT…TC
Details: aptamer strand: ATP DNA aptamer (quencher-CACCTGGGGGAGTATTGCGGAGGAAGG + anchor), 100 nM annealed; ATP concentration: 500 uM
Form: value (number only, do not type unit).

Incoming: Can you look up the measured switch fluorescence ratio of GCGAGGCCAA for me?
Outgoing: 1.28

Incoming: TGGGTAGATA , same question.
Outgoing: 0.985

----------
System: ATP;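 further: ATP exposure 15 min at 22 °C before imaging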
Test: switch fluorescence ratio, 500 uM ATP over buffer (Cy3 cluster intensity, sum of 5 cycles each) (fold (ratio)); higher = stronger signal-on switching upon ATP binding; sequences stand for … in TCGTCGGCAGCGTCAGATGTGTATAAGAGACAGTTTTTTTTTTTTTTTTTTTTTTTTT…TC
Conditions: aptamer strand: ATP DNA aptamer (quencher-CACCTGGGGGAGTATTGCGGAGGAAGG + anchor), 100 nM annealed; ATP concentration: 500 uM
value.type: switch fluorescence ratio

Here is how some sequences turned out for switch fluorescence ratio.
ordered.residues	value.type	observed
AACTACGTCT	switch fluorescence ratio	0.986
GAGGTCCACT	switch fluorescence ratio	1.01
GATTTTTTTC	switch fluorescence ratio	0.98

Incoming: Please give the measured switch fluorescence ratio for this sequence: TTTGTGTATG
Outgoing: 0.97

Incoming: # repeat for TTGGATTAGT
Outgoing: 0.982

Incoming: Proceed to TTGAAAAAAC
Outgoing: 1.04

Incoming: Param item: GAAGGAGGGA
Outgoing: 0.987

Incoming: // query: TTTGGAGTCT
Outgoing: 0.982

Incoming: Now the same for ATGAGTTTTT
Outgoing: 1.01

Incoming: Next sequence: GACTATGTTT
Outgoing: 1

Incoming: Try TTTAGTTGAT next.
Outgoing: 1.01

Incoming: Next up: TTGGTTGTGT
Outgoing: 1.01

Incoming: Also TGGGCGGCTT , if possible.
Outgoing: 0.97

Incoming: Would you kindly repeat that for GCTGTTGTTC ?
Outgoing: 0.979

Incoming: For TACCACTTTG then?
Outgoing: 1.24
